molecular target: T1, Human VEGF-A 165 (human, UniProt P15692 207-395); assay: SPR (Biacore), antibody captured via anti-human Fc, antigen in solution
T1 construct: Recombinant human VEGF165; also called hVEGF165; huVEGF-A165
T1 sequence (P15692 other isoform, or with tags, fused parts or gaps limits assumed): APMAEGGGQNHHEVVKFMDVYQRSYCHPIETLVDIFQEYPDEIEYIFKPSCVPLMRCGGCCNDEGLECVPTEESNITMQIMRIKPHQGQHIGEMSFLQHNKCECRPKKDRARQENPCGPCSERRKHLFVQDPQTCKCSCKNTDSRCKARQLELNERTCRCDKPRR
quantity-measured: kon (M⁻¹ s⁻¹)
// note: answer is a bare numeric in M⁻¹ s⁻¹

What value of measured kon is listed for hBEW-1E3.1 (antibody, V domains shown, Humanized IgG) VH: EIQLVQSGSELKKPGASVKVSCKASGYPFTNSGMYWVKQAPGQGLEYMGWINTEAGKPTYADDFKGRFVFSLDTSVSTAYLQISSLKAEDTAVYFCARWGYISDNSYGWFDYWGQGTLVTVSS VL: ETVLTQSPATLSLSPGERATLSCRASEGVYSYMHWYQQKPGQQPRLLIYKASNLASGVPARFSGSGSGTDFTLTISSLEPEDFAVYFCHQNWNDPLTFGQGTKLEIK ?
1.1e+07

What value of measured kon is listed for hBEW-1E3.5 (antibody, V domains shown, Humanized IgG) VH: EIQLVQSGAEVKKPGASVKVSCKASGYPFTNSGMYWVKQAPGQGLEYMGWINTEAGKPTYADDFKGRFTFTLDTSTSTAYLEIRSLRSDDTAVYFCARWGYISDNSYGWFDYWGQGTLVTVSS VL: ATQLTQSPSSLSASVGDRVTISCRASEGVYSYMHWYQQKPGKQPKLLIYKASNLASGVPSRFSGSGSGTDFTLTISSLQPEDFATYFCHQNWNDPLTFGQGTKLEIK ?
1e+07

What value of measured kon is listed for hBEW-1E3.4 (antibody, V domains shown, Humanized IgG) VH: EIQLVQSGSELKKPGASVKVSCKASGYPFTNSGMYWVKQAPGQGLEYMGWINTEAGKPTYADDFKGRFVFSLDTSVSTAYLQISSLKAEDTAVYFCARWGYISDNSYGWFDYWGQGTLVTVSS VL: ATQLTQSPSSLSASVGDRVTISCRASEGVYSYMHWYQQKPGKQPKLLIYKASNLASGVPSRFSGSGSGTDFTLTISSLQPEDFATYFCHQNWNDPLTFGQGTKLEIK ?
9.8e+06

What value of measured kon is listed for hBEW-1E3.2 (antibody, V domains shown, Humanized IgG) VH: EIQLVQSGAEVKKPGASVKVSCKASGYPFTNSGMYWVKQAPGQGLEYMGWINTEAGKPTYADDFKGRFTFTLDTSTSTAYLEIRSLRSDDTAVYFCARWGYISDNSYGWFDYWGQGTLVTVSS VL: ETVLTQSPATLSLSPGERATLSCRASEGVYSYMHWYQQKPGQQPRLLIYKASNLASGVPARFSGSGSGTDFTLTISSLEPEDFAVYFCHQNWNDPLTFGQGTKLEIK ?
1.1e+07
